# tested target: Prostaglandin G/H synthase 1 (Homo sapiens, UniProt P23219)
# Sequence (P23219 whole entry): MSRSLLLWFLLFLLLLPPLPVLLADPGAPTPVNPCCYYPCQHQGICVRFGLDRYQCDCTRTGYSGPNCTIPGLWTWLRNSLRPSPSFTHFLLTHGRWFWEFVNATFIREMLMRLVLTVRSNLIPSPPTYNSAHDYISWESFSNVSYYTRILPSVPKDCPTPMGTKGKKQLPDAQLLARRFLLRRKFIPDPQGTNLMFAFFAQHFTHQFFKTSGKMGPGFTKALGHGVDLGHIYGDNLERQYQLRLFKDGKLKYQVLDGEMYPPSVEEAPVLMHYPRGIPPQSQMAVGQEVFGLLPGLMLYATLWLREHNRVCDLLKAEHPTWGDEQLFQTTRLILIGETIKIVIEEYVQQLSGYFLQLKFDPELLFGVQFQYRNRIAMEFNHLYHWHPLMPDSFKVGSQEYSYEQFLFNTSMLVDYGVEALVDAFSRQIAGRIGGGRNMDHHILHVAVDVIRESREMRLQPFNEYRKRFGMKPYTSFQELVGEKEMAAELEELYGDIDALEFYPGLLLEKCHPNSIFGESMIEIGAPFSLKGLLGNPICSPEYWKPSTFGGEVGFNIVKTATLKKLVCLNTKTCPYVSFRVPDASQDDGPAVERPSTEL
# method notes: Inhibition of COX1 in human whole blood allowed to clot assessed as TXB2 production
test readout: pIC50
Value format note: pIC50 is -log10 of concentration (mol/L); just state the number.

Param item = CCCOCCc1cc(-c2ccc(S(C)(=O)=O)cc2)n(-c2ccccc2)c1C ; retrieve measured pIC50. 4.07
